Where do these numbers come from? They come from ChEMBL document CHEMBL1139517.

# Tested on: Plasmodium falciparum
# measurement_notes: In vitro inhibition of Plasmodium falciparum
# Type: functional, organism-based
outcome_measure: IC50 (nM)

(1) CCOC(=O)Cc1c(CCCCCCCCCCCCc2sc[n+](C)c2CC(=O)OCC)sc[n+]1C
(2) c1ccc2c(c1)sc[n+]2CCCCCCCCCCCC[n+]1csc2ccccc21
(3) Cc1csc[n+]1CCCCCCCCCCCC[n+]1cscc1C.[I-].[I-]
(4) Cc1c(CCO)sc[n+]1CCCCCCCC[n+]1csc(CCO)c1C
Prompt: Could you arrange the 4 compounds above by IC50, starting with the largest number? Answer with the labels in sequence, matching the requested order.
Completion: 2, 4, 1, 3
